compounds and their reported inhibition at 1 µM
measured_on: human μ opiate receptor (Homo sapiens, UniProt P35372)
Construct: purchased PerkinElmer Life Sciences, Zaventem, Belgium RB-HOM; host or cells: CHO-K1 cells (membrane preparation)
Sequence (P35372 whole entry): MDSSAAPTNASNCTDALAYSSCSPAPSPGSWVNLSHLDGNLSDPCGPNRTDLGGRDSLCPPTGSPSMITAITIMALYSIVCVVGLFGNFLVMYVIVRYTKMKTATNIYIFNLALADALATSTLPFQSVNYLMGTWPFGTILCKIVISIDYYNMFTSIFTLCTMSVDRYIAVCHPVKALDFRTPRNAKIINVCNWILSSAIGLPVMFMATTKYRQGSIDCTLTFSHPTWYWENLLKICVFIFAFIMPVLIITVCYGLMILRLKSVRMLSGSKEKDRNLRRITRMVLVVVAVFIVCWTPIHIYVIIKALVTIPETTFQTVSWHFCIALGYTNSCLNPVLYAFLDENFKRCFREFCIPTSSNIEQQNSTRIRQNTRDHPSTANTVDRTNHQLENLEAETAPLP
assay_procedure: Affinity for the human μ opiate receptor ([3H]-naloxone displacement, CHO-K1 receptor membrane preparation, SPA)
Assay type: binding
assay_context: 1.5 h, Table 3, to be read in the same way as Table 1; test concentration 1 μM; read-out: μ
Description: Binding data of the compounds on the μ opioid receptor and data on the inhibition of reuptake of serotonin (5-HT) are given in Table 1. The data for the μ receptor were measured at a test concentration of 1 μM, and those for the serotonin reuptake at 10 μM. The values are stated in % inhibition. […] The receptor affinity for the human p opiate receptor is determined in a homogeneous set-up in microtitre plates. […]
Numbers only; they are read as %.

O=C(COC1CCN(S(=O)(=O)c2c(Cl)cc(Cl)cc2Cl)C1)NCC1CCC(C(CCc2ccccc2)N2CCOCC2)CC1 (stereo not shown) : 8

Given the entry O=C(COC1CCN(S(=O)(=O)c2c(Cl)cc(Cl)cc2Cl)C1)NCC1CCC(C(c2ccccc2)N2CCCC2)CC1 (stereo not shown) , report its measured inhibition at 1 µM. 59

----------
measured_on: bradykinin 1 receptor (B1R) of the rat (Rattus norvegicus)
Construct: expressed in transfected cells; host or cells: CHO K1 cells
assay_procedure: Functional investigation on the rat bradykinin 1 receptor (B1R), Ca2+ FLIPR assay in CHO K1 rB1R cells
Type: cell-based
assay_context: CHO-K1, B1R antagonism rat; test substance 10 μM; Ca2+ FLIPR, CHO K1 rB1R cells; read-out: B1R Ant. r [10 μM] % Inhibition
Label rule, in plain words: inhibition at 10 µM of 20% and up is 1.0, under 20% is 0.0.

COc1cc(C)c(S(=O)(=O)N(C)CCOCC(=O)NCC2CCC(C(c3cccs3)N(C)C)CC2)c(C)c1C (centres unmarked) : 0.0

Form field: inhibition at 10 µM at least 20%? Entry: COc1cc(C)c(S(=O)(=O)N2CCC(OCC(=O)NCCC3CCC(C(c4cccs4)N(C)C)CC3)C2)c(C)c1 (centres unmarked) 1.0

----------
measured_on: human bradykinin 1 receptor (B1R) (Homo sapiens)
Construct: expressed in transfected cells; host or cells: CHO K1 cells
Sequence (P46663 whole entry): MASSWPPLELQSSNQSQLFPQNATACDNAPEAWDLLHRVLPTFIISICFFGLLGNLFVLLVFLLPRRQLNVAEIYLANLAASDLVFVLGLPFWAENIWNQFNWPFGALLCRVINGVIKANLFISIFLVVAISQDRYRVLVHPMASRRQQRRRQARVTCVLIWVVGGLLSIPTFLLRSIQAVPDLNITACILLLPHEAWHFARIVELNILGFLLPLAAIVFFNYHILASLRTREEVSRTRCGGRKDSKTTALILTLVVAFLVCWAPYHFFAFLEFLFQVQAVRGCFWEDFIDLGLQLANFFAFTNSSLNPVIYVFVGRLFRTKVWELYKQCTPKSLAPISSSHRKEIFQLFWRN
assay_procedure: Functional investigation on the human bradykinin 1 receptor (B1R), Ca2+ FLIPR assay in CHO K1 hB1R cells
Type: cell-based
assay_context: B1R antagonism human; test substance 10 μM; Ca2+ FLIPR, CHO K1 hB1R cells
Description: Functional Investigation on the Human Bradykinin 1 Receptor (B1R) The agonistic or antagonistic action of substances can be determined on the bradykinin 1 receptor (B1R) of the human species and rats with the following assay. In accordance with this assay, the Ca^2+ inflow through the channel is quantified with the aid of a Ca^2=-sensitive dyestuff (type Fluo-4, Molecular Probes Europe BV, Leiden, Holland) in a fluorescent imaging plate reader (FLIPR, Molecular Devices, Sunnyvale, USA). […]
Measured B1R Ant. h [10 μM] % Inhibition determines class: c1 (below 20%), c2 (20% to below 80%), c3 (80% or more)

Consider the worked cases shown below.
CN(C)C(c1ccc(F)cc1)C1CCC(CNC(=O)COCCN(C)S(=O)(=O)c2ccc(OC(F)(F)F)cc2)CC1 (stereo not shown) [Example 439] : c2
COc1cc(C)c(S(=O)(=O)N(CCOCC(=O)NCCC2CCC(C(c3ccc(F)cc3)N(C)C)CC2)Cc2ccccc2)c(C)c1 (stereo not shown) [Example 547] : c2
CN(C)C(c1cccs1)C1CCC(CNC(=O)COC2CCN(S(=O)(=O)c3ccccc3)CC2)CC1 (stereo not shown) [Example 276] : c1
COc1cc(C)c(S(=O)(=O)N2CCC(CCOCC(=O)NCC3CCC(C(c4ccc(Cl)cc4)N(C)C)CC3)CC2)c(C)c1C (stereo not shown) [Example 499] : c2
CN(C)C(c1ccc(F)cc1)C1CCC(NC(=O)COC2CCN(S(=O)(=O)c3ccccc3)C2)CC1 (stereo not shown) [Example 463] : c1

# bin label for Cc1ccc(S(=O)(=O)N2CCC(OCC(=O)NC3CCC(C(c4ccc(F)cc4)N(C)C)CC3)C2)cc1 (stereo not shown) [Example 371] c1

State the band of COc1ccc(S(=O)(=O)N2CCCC2COCC(=O)NCC2CCC(C(CCc3ccccc3)N(C)C)CC2)cc1 (stereo not shown) [Example 572] c2

Which B1R Ant. h [10 μM] % Inhibition band matches COc1cc(C)c(S(=O)(=O)N2CCC(OCC(=O)NCC3CCC(C(c4cccc(F)c4)N(C)C)CC3)C2)c(C)c1C (stereo not shown) [Example 252] ? c2

For COc1cc(C)c(S(=O)(=O)N(C)CCOCC(=O)NCC2CCC(C(c3ccc(Cl)cc3)N(C)C)CC2)c(C)c1C (stereo not shown) [Example 298] , which B1R Ant. h [10 μM] % Inhibition bin applies? c3

For CN(C)C(c1ccc(F)cc1)C1CCC(CNC(=O)COCCC2CCN(S(=O)(=O)c3ccccc3)CC2)CC1 (stereo not shown) [Example 583] , which B1R Ant. h [10 μM] % Inhibition bin applies? c1

Lab log: COc1ccc(S(=O)(=O)N2CCCC2COCC(=O)NCC2CCC(C(c3ccc(Cl)cc3)N(C)C)CC2)cc1 (stereo not shown) [Example 351] — assign B1R Ant. h [10 μM] % Inhibition category c2

Which class is correct for the following molecule? COc1cc(C)c(S(=O)(=O)N2CCC(OCC(=O)NCCC3CCC(C(c4ccc(Cl)cc4)N(C)C)CC3)C2)c(C)c1C (stereo not shown) [Example 412] c2

Band for the recorded B1R Ant. h [10 μM] % Inhibition of COc1cc(C)c(S(=O)(=O)N(CCOCC(=O)NC2CCC(C(c3ccc(F)cc3)N(C)C)CC2)Cc2ccccc2)c(C)c1 (stereo not shown) [Example 504] ? c2

Sort COc1ccc(S(=O)(=O)N2CCCCC2COCC(=O)NC2CCC(C(c3cccc(F)c3)N(C)C)CC2)c(OC)c1 (stereo not shown) [Example 322] into one of the categories. c1

Into which bin does this molecule go? COc1ccc(S(=O)(=O)N(C)CCOCC(=O)NCC2CCC(C(CCc3ccccc3)N(C)C)CC2)cc1 (stereo not shown) [Example 550] c2

Which band does CN(C)C(c1cccc(F)c1)C1CCC(NC(=O)COCCN2CCN(S(=O)(=O)c3ccccc3)CC2)CC1 (stereo not shown) [Example 364] fall in? c1

Which B1R Ant. h [10 μM] % Inhibition band matches COc1cc(C)c(S(=O)(=O)N(CCOCC(=O)NCC2CCC(C(CCc3ccccc3)N(C)C)CC2)Cc2ccccc2)c(C)c1C (stereo not shown) [Example 562] ? c3

Given CN(C)C(c1cccc(F)c1)C1CCC(NC(=O)COCCN(C)S(=O)(=O)c2ccc(Cl)cc2Cl)CC1 (stereo not shown) [Example 217] , name the class its B1R Ant. h [10 μM] % Inhibition places it in. c3

Which of the defined bands does the recorded B1R Ant. h [10 μM] % Inhibition of COc1ccc(S(=O)(=O)N2CCCCC2COCC(=O)NC2CCC(C(c3ccc(F)cc3)N(C)C)CC2)cc1 (stereo not shown) [Example 450] sit within? c2

Pick a category. Item: COc1cc(C)c(S(=O)(=O)N2CCC(OCC(=O)NCC3CCC(C(c4ccc(F)cc4)N(C)C)CC3)C2)c(C)c1 (stereo not shown) [Example 541] c3

Please let me know in which category the item CN(C)C(c1ccccc1)C1CCC(NC(=O)COCC2CCCN2S(=O)(=O)c2c(Cl)cc(Cl)cc2Cl)CC1 (stereo not shown) [Example 612] belongs. c3

Note: place this molecule into its band. Item: COc1ccc(S(=O)(=O)N2CCCCC2CCOCC(=O)NCC2CCC(C(CCc3ccccc3)N(C)C)CC2)cc1 (stereo not shown) [Example 535] c2

# bin lookup: classify CN(C)C(CCc1ccccc1)C1CCC(CNC(=O)COCCN(C)S(=O)(=O)c2ccc(Cl)cc2Cl)CC1 (stereo not shown) [Example 513] by its B1R Ant. h [10 μM] % Inhibition c3

Bin this entry: CN(C)C(c1ccccc1)C1CCC(NC(=O)COCC2CCCN2S(=O)(=O)c2c(Cl)cc(Cl)cc2Cl)CC1 (stereo not shown) [Example 611] c3

----------
compounds and their reported B1R Ant. r [10 μM] % Inhibition
measured_on: bradykinin 1 receptor (B1R) of the rat (Rattus norvegicus, UniProt P97583)
Construct: expressed in transfected cells; host or cells: CHO K1 cells
Sequence (P97583 whole entry): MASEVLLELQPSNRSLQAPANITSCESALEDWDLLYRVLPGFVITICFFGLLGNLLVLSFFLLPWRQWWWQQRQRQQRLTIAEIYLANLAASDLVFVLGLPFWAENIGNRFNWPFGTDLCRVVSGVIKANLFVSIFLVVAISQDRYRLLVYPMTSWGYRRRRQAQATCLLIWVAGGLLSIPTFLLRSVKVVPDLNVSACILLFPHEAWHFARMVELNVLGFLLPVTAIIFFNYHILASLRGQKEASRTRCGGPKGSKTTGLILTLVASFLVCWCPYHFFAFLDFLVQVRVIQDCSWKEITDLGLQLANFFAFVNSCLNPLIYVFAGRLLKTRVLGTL
assay_procedure: Functional investigation on the rat bradykinin 1 receptor (B1R), Ca2+ FLIPR assay in CHO K1 rB1R cells
Assay type: cell-based
assay_context: B1R antagonism rat; test substance 10 μM; Ca2+ FLIPR, CHO K1 rB1R cells
Reply with just the number (in %).

Consider the reported B1R Ant. r [10 μM] % Inhibition for these compounds:
CN(C)C(c1ccc(F)cc1)C1CCC(CNC(=O)COCCN(C)S(=O)(=O)c2c(Cl)cccc2Cl)CC1 (stereo not shown) : 83
COc1ccc(S(=O)(=O)N2CCCC2COCC(=O)NCC2CCC(C(c3cccc(F)c3)N(C)C)CC2)cc1 (stereo not shown) : 31
CN(C)C(CCc1ccccc1)C1CCC(CNC(=O)COC2CCN(S(=O)(=O)c3ccc(Cl)cc3)C2)CC1 (stereo not shown) : 29
COc1ccc(S(=O)(=O)N2CCCCC2COCC(=O)NCC2CCC(C(c3cccc(F)c3)N(C)C)CC2)cc1OC (stereo not shown) : 9
CN(C)C(c1ccc(Cl)cc1)C1CCC(CCNC(=O)COCCN(C)S(=O)(=O)c2c(Cl)cc(Cl)cc2Cl)CC1 (stereo not shown) : 11

# input compound: Cc1ccc(S(=O)(=O)N(C)CCOCC(=O)NCC2CCC(C(c3cccc(F)c3)N(C)C)CC2)cc1 (stereo not shown) ; wanted: its B1R Ant. r [10 μM] % Inhibition 12

What measured B1R Ant. r [10 μM] % Inhibition goes with Cc1ccc(S(=O)(=O)N(C)CCOCC(=O)NCCC2CCC(C(c3ccc(F)cc3)N(C)C)CC2)cc1 (stereo not shown) ? 11

Which B1R Ant. r [10 μM] % Inhibition value belongs to CN(C)C(c1cccc(F)c1)C1CCC(NC(=O)COC2CCN(S(=O)(=O)c3ccc(Cl)cc3)C2)CC1 (stereo not shown) ? −13

What value of B1R Ant. r [10 μM] % Inhibition has been recorded for this entry: CN(C)C(CCc1ccccc1)C1CCC(CNC(=O)COC2CCN(S(=O)(=O)c3cccc(C(F)(F)F)c3)C2)CC1 (stereo not shown) 26

Which measured B1R Ant. r [10 μM] % Inhibition value corresponds to CN(C)C(c1cccc(F)c1)C1CCC(NC(=O)COCC2CCCN(S(=O)(=O)c3ccccc3)C2)CC1 (stereo not shown) ? 24

Entry CN(C)C(c1cccc(F)c1)C1CCC(CCNC(=O)COCCN2CCN(S(=O)(=O)c3ccccc3)CC2)CC1 (stereo not shown) has what B1R Ant. r [10 μM] % Inhibition? 6

Query (compound): CN(C)C(c1ccccc1)C1CCC(NC(=O)COCC2CCCN2S(=O)(=O)c2c(Cl)cc(Cl)cc2Cl)CC1 (stereo not shown) [Example 611] ; field requested: B1R Ant. r [10 μM] % Inhibition 68

Please look up its B1R Ant. r [10 μM] % Inhibition: COc1ccc(S(=O)(=O)N2CCC(OCC(=O)NCC3CCC(C(CCc4ccccc4)N(C)C)CC3)C2)cc1OC (stereo not shown) 22

For Cc1cc(C)c(S(=O)(=O)N(C)CCOCC(=O)NC2CCC(C(c3ccc(F)cc3)N(C)C)CC2)c(C)c1 (stereo not shown) , what is its reported B1R Ant. r [10 μM] % Inhibition? 12

Look at this compound and give its reported B1R Ant. r [10 μM] % Inhibition. Cc1cc(C)c(S(=O)(=O)N(C)CCOCC(=O)NCCC2CCC(C(c3ccc(Cl)cc3)N(C)C)CC2)c(C)c1 (stereo not shown) 30
